Test system: SW-620
test.description: Growth inhibition of human SW620 cells incubated for 48 hrs by sulforhodamine B assay
Assay type: functional
experimental.context: SW-620, 48 h
Each entry gets Condition not met if its TGI stays under 3000 nM, and Condition met if its TGI is 3000 nM or above.

- compound: "C=C1CC[C@@H]2[C@](C)(COC(C)=O)[C@H](OC(C)=O)CC[C@@]2(C)[C@H]1CC(Nc1ccc(S(=O)(=O)Nc2nccs2)cc1)C1=CCOC1=O (stereo not given in full)"
  class.name: "Condition met"
- compound: "C=C1CC[C@@H]2[C@](C)(COC(C)=O)[C@H](OC(C)=O)CC[C@@]2(C)[C@H]1CC(Nc1ccc(S(=O)(=O)Nc2nccc(C)n2)cc1)C1=CCOC1=O (stereo not given in full)"
  class.name: "Condition met"
- compound: "C=C1CC[C@@H]2[C@](C)(COC(C)=O)[C@H](OC(C)=O)CC[C@@]2(C)[C@H]1CC(Nc1ccc(S(=O)(=O)Nc2ccc(Cl)nn2)cc1)C1=CCOC1=O (stereo not given in full)"
  class.name: "Condition not met"
- compound: "C=C1CC[C@@H]2[C@](C)(COC(C)=O)[C@H](OC(C)=O)CC[C@@]2(C)[C@H]1CC(Nc1ccc(S(=O)(=O)Nc2ncccn2)cc1)C1=CCOC1=O (stereo not given in full)"
  class.name: "Condition not met"

----------
Each record here notes measured growth at 10 µM.
System: HOP-62
test.description: Anticancer activity against human HOP62 cells assessed as cell growth at 10 uM after 48 hrs by sulforhodamine B assay relative to control
Type: functional
experimental.context: HOP-62, 48 h, read-out: Activity

- compound: "C=C1CC[C@@H]2[C@](C)(COC(C)=O)[C@H](OC(C)=O)CC[C@@]2(C)[C@H]1CC(Nc1ccc(S(=O)(=O)Nc2ncccn2)cc1)C1=CCOC1=O (stereo partly drawn)"
  target.desc: "HOP-62"
  display.unit: "%"
  growth at 10 µM: 126
- compound: "C=C1CC[C@@H]2[C@](C)(COC(C)=O)[C@H](OC(C)=O)CC[C@@]2(C)[C@H]1CC(Nc1ccc(S(=O)(=O)Nc2cc(C)on2)cc1)C1=CCOC1=O (stereo partly drawn)"
  target.desc: "HOP-62"
  display.unit: "%"
  growth at 10 µM: 60.2
- compound: "C=C1CC[C@@H]2[C@](C)(COC(C)=O)[C@H](OC(C)=O)CC[C@@]2(C)[C@H]1CC(Nc1ccc(S(=O)(=O)Nc2nc(C)cc(C)n2)cc1)C1=CCOC1=O (stereo partly drawn)"
  target.desc: "HOP-62"
  display.unit: "%"
  growth at 10 µM: 103

----------
System: NCI-H522
test.description: Growth inhibition of human NCI-H522 cells incubated for 48 hrs by sulforhodamine B assay
Type: functional
experimental.context: NCI-H522, 48 h, read-out: LC50 (the source's name)
readout: CC50 (µM)

- molecule: "C=C1CC[C@@H]2[C@](C)(COC(C)=O)[C@H](OC(C)=O)CC[C@@]2(C)[C@H]1CC(Nc1ccc(S(=O)(=O)Nc2nccc(C)n2)cc1)C1=CCOC1=O (stereo not given in full)"
  readout: "CC50"
  result: 7.62
- molecule: "C=C1CC[C@@H]2[C@](C)(COC(C)=O)[C@H](OC(C)=O)CC[C@@]2(C)[C@H]1CC(Nc1ccc(S(=O)(=O)Nc2cc(C)on2)cc1)C1=CCOC1=O (stereo not given in full)"
  readout: "CC50"
  result: 5.61
- molecule: "C=C1CC[C@@H]2[C@](C)(COC(C)=O)[C@H](OC(C)=O)CC[C@@]2(C)[C@H]1CC(Nc1ccc(S(=O)(=O)Nc2ccc(Cl)nn2)cc1)C1=CCOC1=O (stereo not given in full)"
  readout: "CC50"
  result: 4.82
- molecule: "C=C1CC[C@@H]2[C@](C)(COC(C)=O)[C@H](OC(C)=O)CC[C@@]2(C)[C@H]1CC(Nc1ccc(S(=O)(=O)Nc2ncccn2)cc1)C1=CCOC1=O (stereo not given in full)"
  readout: "CC50"
  result: 6.45
- molecule: "C=C1CC[C@@H]2[C@](C)(COC(C)=O)[C@H](OC(C)=O)CC[C@@]2(C)[C@H]1CC(Nc1ccc(S(=O)(=O)Nc2nccs2)cc1)C1=CCOC1=O (stereo not given in full)"
  readout: "CC50"
  result: 21.2
